# assayed target: CaRvs167-3
# procedure details: SPOT peptide array binding signal intensity (averaged, normalized) (arbitrary units (background-subtracted, floor 0; scale differs between SH3 domains)); higher = stronger binding of the SH3 domain to the peptide
attribute measured: SPOT peptide array binding signal intensity

[
  {
    "binder": "VAPPPLPNRQLPNLD",
    "assay result": "≤ 0"
  },
  {
    "binder": "YLTRPLPSTPNEDSR",
    "assay result": "≤ 0"
  },
  {
    "binder": "VQPTAAPATPPRHIS",
    "assay result": "≤ 0"
  },
  {
    "binder": "GKKVRPLLVLLLSRA",
    "assay result": 50.8
  },
  {
    "binder": "RRTRLRPPTPLSQLL",
    "assay result": 16.5
  },
  {
    "binder": "FIRKRAPTPPAPSRS",
    "assay result": 40.8
  }
]
